experiment: Liver microsomal stability, human; type: in vitro ADME; details: pH 7.4, liver microsomes
MEASURED_ATTRIBUTE: microsomal CLint (µL/min/mg)
Number in µL/min/mg, nothing else.

// worked examples, microsomal CLint included
Problem: Given CC(C)Oc1ccc(-c2nn[nH]n2)c(N2CCN(Cc3nc4ccccc4n3C)CC2)c1 , state its recorded microsomal CLint.
Solution: 8

Problem: # repeat for CC(C)Cc1cc(F)c(-c2nn[nH]n2)c(N2CCN(Cc3cccnn3)C(C)C2)c1 (centres unmarked)
Solution: 4

Problem: Similarly, CC(C)Cc1ccc(-c2nn[nH]n2)c(N2CCN(Cc3nc4ccccc4c(=O)[nH]3)CC2)c1 ?
Solution: 8

Problem: Input CC(C)Cc1ccc(-c2nn[nH]n2)c(N2CCN(Cc3nccn3C)CC2)c1
Solution: 6

Problem: Also Cc1cnc(CN2CCN(c3cc(CC(C)C)cc(F)c3-c3nn[nH]n3)C[C@@H]2C)s1 ?
Solution: 18.2

Problem: Check CCCCNC(=O)NS(=O)(=O)c1ccc(C)cc1N1CCN(Cc2nc3ccccc3n2C)CC1 too.
Solution: 259

We next turn to a different compound, shown below.
Problem: Item CCCCOC(=O)NS(=O)(=O)c1ccc(C(F)(F)F)cc1N1CCN(Cc2nc3ccccc3n2C)CC1 has what recorded microsomal CLint?
Solution: 37

====

target: CYP1A2 (Homo sapiens (Human)); assay: in vitro
Sequence (P05177 whole entry): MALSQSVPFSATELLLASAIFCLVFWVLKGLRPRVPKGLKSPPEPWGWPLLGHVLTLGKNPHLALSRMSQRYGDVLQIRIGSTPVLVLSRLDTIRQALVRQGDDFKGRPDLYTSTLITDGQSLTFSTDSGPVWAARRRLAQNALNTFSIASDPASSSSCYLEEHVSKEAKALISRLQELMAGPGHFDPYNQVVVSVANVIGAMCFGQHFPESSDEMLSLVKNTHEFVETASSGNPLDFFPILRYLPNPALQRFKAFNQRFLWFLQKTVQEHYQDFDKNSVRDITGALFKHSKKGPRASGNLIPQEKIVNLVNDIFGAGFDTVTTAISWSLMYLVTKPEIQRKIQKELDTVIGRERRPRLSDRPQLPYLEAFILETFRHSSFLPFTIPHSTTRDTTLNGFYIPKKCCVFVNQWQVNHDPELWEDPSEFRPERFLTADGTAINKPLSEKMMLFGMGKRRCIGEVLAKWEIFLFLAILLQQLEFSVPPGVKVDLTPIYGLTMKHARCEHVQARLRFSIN
MEASURED_ATTRIBUTE: inhibition at 10 µM (%)
Record the value in %, omitting the unit from your answer.

Worked set:
Problem: Name the reported inhibition at 10 µM value associated with the compound CCCCNC(=O)NS(=O)(=O)c1ccc(C(F)(F)F)cc1N1CCN(Cc2nc3ccccc3n2C)CC1
Solution: 23

Problem: Continue with CC(C)Cc1ccc(-c2nn[nH]n2)c(N2CCN(Cc3nc4ccccc4c(=O)[nH]3)CC2)c1
Solution: 6.09

Problem: Same thing, different compound: CC(C)Oc1ccc(-c2nn[nH]n2)c(N2CCN(Cc3nc4ccccc4n3C)CC2)c1
Solution: 27.4

Problem: Try this compound too: CC(C)Cc1cc(F)c(-c2nn[nH]n2)c(N2CCN(Cc3cccnn3)C(C)C2)c1 (stereo not shown)
Solution: 18.5

Problem: Same question, CC(C)Cc1cc(F)c(-c2nn[nH]n2)c(N2CCN(Cc3cccnn3)[C@@H](C)C2)c1 this time
Solution: 22.7

Problem: What about this compound? CCC1CN(c2cc(CC(C)C)cc(F)c2-c2nn[nH]n2)CCN1Cc1cccnn1 (stereo not shown)
Solution: 23.5

Problem: Consider next the compound Cc1cnc(CN2CCN(c3cc(CC(C)C)cc(F)c3-c3nn[nH]n3)C[C@@H]2C)s1 in the same way.
Solution: 16

Problem: Also need CC(C)Oc1ccc(-c2nn[nH]n2)c(N2CCN(Cc3nc4ccccc4c(=O)[nH]3)CC2)c1 , thanks.
Solution: 7.17

Problem: Try the compound CC(C)Cc1ccc(-c2nn[nH]n2)c(N2CCN(Cc3cccnn3)CC2)c1
Solution: 10.3

More entries:
Problem: GET /values?readout=inhibition at 10 µM&item= CC(C)Cc1ccc(-c2nn[nH]n2)c(N2CCN(Cc3ncccn3)CC2)c1
Solution: 22.5

====

molecular target: human AT2R fused to Cb23 (Homo sapiens); test: Radioligand binding assay, displacement of 125I-[Sar1, Ile8]-Angiotensin II, hAT2R Cb23; settings: displacement of 125I-[Sar1, Ile8]-Angiotensin II, human AT2R fused to Cb23, HEK-293 cell membrane preparations; read-out: Binding affinity on hAT2R_Cb23 IC50
Sequence (P50052 whole entry, looked up, the tested form may be a part): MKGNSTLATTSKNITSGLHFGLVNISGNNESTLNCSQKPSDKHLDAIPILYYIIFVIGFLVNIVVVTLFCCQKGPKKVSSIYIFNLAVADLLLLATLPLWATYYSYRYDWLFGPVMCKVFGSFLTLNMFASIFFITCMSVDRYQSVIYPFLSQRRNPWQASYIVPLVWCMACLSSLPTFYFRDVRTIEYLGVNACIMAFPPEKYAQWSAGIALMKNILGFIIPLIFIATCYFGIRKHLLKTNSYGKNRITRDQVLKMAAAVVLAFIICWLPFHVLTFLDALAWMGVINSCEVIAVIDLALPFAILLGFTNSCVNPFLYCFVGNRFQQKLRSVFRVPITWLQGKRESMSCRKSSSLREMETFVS
The entries below are paired with their reported IC50.
Report only the number, with the unit µM understood.

Problem: IC50 lookup needed for O=c1[nH]c(CN2CCN(c3cc(C4CC4)ccc3-c3nn[nH]n3)CC2)nc2ccccc12 , thanks.
Solution: 3.56

New cases:
Problem: For the compound shown here, CC(C)Oc1cc(N2CCN(Cc3cccnn3)CC2)c(-c2nn[nH]n2)cc1C1CC1 , give the reported IC50.
Solution: 4.94

Problem: Another: COc1cc(F)c(-c2nn[nH]n2)c(N2CCN(Cc3nc4ccccc4c(=O)[nH]3)CC2)c1
Solution: 33.8

Problem: Next: CC(C)Oc1ccc(-c2nn[nH]n2)c(N2CCN(Cc3nc4ccccc4c(=O)[nH]3)CC2)c1
Solution: 14.7

Problem: Entry CC(C)Cc1ccc(-c2nn[nH]n2)c(N2CCCN(Cc3cccnn3)CC2)c1 please
Solution: 1.23
